Source listed as PubChem BioAssay (EPA / NIEHS).

# Read-out: Signal transducer and activator of transcription 3 (Homo sapiens) (UniProt P40763)
# Sequence (P40763 whole entry, looked up): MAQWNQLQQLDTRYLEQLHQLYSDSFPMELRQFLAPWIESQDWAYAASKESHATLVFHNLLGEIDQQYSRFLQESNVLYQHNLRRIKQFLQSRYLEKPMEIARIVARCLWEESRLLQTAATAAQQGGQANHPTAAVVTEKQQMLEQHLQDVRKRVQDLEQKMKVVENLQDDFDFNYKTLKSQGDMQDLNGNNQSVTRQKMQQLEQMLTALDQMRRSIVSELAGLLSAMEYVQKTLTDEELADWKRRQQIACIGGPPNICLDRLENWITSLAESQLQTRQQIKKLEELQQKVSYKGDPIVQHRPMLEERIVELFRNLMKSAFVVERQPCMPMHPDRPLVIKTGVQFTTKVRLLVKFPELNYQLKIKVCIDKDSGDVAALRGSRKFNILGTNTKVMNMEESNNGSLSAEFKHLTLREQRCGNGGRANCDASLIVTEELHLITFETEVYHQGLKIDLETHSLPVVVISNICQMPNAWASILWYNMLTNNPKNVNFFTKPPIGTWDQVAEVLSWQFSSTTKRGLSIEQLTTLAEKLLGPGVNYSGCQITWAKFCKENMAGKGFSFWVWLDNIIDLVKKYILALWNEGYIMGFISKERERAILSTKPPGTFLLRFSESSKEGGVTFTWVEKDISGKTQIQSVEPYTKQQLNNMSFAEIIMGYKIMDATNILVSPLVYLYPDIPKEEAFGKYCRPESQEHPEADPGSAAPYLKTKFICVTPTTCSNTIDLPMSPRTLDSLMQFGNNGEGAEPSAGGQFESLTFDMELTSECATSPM
# method description: LTEA_HepaRG_STAT3: Life Technologies and Expression Analysis (LTEA) Assay for Signal transducer and activator of transcription (STAT3) using HepaRG (AID 2283529)
# assay setup: mRNA level, 48 h; actives raise or lower the signal
Activity calls are given as the source filed them. How the source made its calls: active means hit-call score of the fitted dose curve at least 0.9, where 1 is the maximum; inactive means score below 0.9.
quantity kind: outcome

CCn1nc(C)c2c1C(=O)NCC(c1ccc(O)cc1)=N2; inactive
CCc1ccc(O)c(C(C)(C)C)c1; inactive
OC[C@H]1O[C@@H]2O[C@H]3[C@H](O)[C@@H](O)[C@@H](O[C@H]4[C@H](O)[C@@H](O)[C@@H](O[C@H]5[C@H](O)[C@@H](O)[C@@H](O[C@H]6[C@H](O)[C@@H](O)[C@@H](O[C@H]7[C@H](O)[C@@H](O)[C@@H](O[C@H]1[C@H](O)[C@H]2O)O[C@@H]7CO)O[C@@H]6CO)O[C@@H]5CO)O[C@@H]4CO)O[C@@H]3CO; inactive

* * *

# Read-out: Cytochrome P450 (CYP1A2), CYP1A2 (gene 1544)
# method description: LTEA_HepaRG_CYP1A2: Life Technologies and Expression Analysis (LTEA) Assay for Cytochrome P450 (CYP1A2) using HepaRG (AID 2283479)
# assay setup: mRNA level, 48 h; actives raise or lower the signal
# Procedure: LTEA_HepaRG is a cell based, multiplexed-readout assay that uses HepaRG, a human liver cell line, with measurements taken at 48 hours after chemical dosing on a 96-well plate.LTEA_HepaRG_CYP1A2 is one of 102 assay component(s) measured in the LTEA HepaRG cell culture assay. It is a marker of NR mediated metabolism.Data from the assay component LTEA_HepaRG_CYP1A2 was analyzed into 1 endpoint. […]
The source made the active and inactive calls. How the source made its calls: active means hit-call score of the fitted dose curve at least 0.9, where 1 is the maximum; inactive means score below 0.9.
In this exercise, the only acceptable responses are YES (active), NO (inactive)

O=C(NO)C1(NS(=O)(=O)c2ccc(Oc3ccc(F)cc3)cc2)CCOCC1; NO

Request: Entry "CCCCCCCCCCCCCCO" : call = ?
Result: YES

Request: Recorded test call requested for "COc1cc(C(C)C)c2c(c1)S(=O)(=O)N(COc1cc(=O)n3cccc(OCCN4CCCCC4)c3n1)C2=O"
Result: YES

Request: Give the logged outcome of this assay for the following molecule: "O=S(=O)(O)c1ccc(N=Nc2c(O)ccc3cc(S(=O)(=O)O)ccc23)cc1"
Result: YES

Request: State the result this test recorded for "NC(=O)NN=Cc1ccc([N+](=O)[O-])o1" .
Result: YES

Request: Field: outcome | Entry: "CCCc1ccccc1"
Result: NO

Request: For "OCC(CO)(CO)CO" , which call appears in the assay record?
Result: NO

Request: Recorded test outcome, item "CCCCCCCCCC"
Result: YES

Request: Short answer needed: outcome of this test for "O=c1[nH]cnc2c1ncn2[C@H]1CC[C@@H](CO)O1" ?
Result: NO

Request: Returns: the outcome recorded for "CCn1nc(C)c2c1C(=O)NCC(c1ccc(O)cc1)=N2" in this assay.
Result: YES

Request: Entry "CCCCOC(=O)c1ccccc1" : call = ?
Result: NO

Request: What classification did "OC(Cn1cncn1)(Cn1cncn1)c1ccc(F)cc1F" end up with in this test?
Result: NO

Request: Record lookup: outcome of this test for "CCN(CC)C(=S)SSC(=S)N(CC)CC" ?
Result: YES
